System: Klebsiella pneumoniae
Assay: Antibacterial activity against Klebsiella pneumonia assessed growth inhibition by micro broth dilution method
Assay type: functional
measured.property: log10 of MIC (log10 of the value in µg/mL)
Remember, log10 of MIC, in µg/mL.

[in] Give a short answer stating reported log10 of MIC for CCOC(=O)c1cn(CC2CCC2)c2cc([C-](C#N)C(=O)OCC)c(F)cc2c1=O.[Na+] (stereo unspecified) .
[out] 0.90

[in] Using the record for CCOC(=O)c1cn(CC2CCCC2)c2cc([C-](C#N)C(=O)OCC)c(F)cc2c1=O.[Na+] (stereo unspecified) , state its measured log10 of MIC.
[out] 0.90

[in] Check the records and state log10 of MIC for CCOC(=O)c1cn(CC2CC2)c2cc([C-](C#N)C(=O)OCC)c(F)cc2c1=O.[Na+] (stereo unspecified)
[out] 1.20

[in] Could you please provide reported log10 of MIC for CCOC(=O)c1cn(Cc2ccc(Cl)c(Cl)c2)c2cc([C-](C#N)C(=O)OCC)c(F)cc2c1=O.[Na+] (stereo unspecified) ? Thanks!
[out] -0.60

[in] // Input: `CCOC(=O)c1cn(Cc2cccc(Cl)c2)c2cc(F)c(F)cc2c1=O` . Output its log10 of MIC only.
[out] 1.51

[in] Answer with the recorded log10 of MIC for the molecule listed here: C#CCn1cc(C(=O)OCC)c(=O)c2cc(F)c([C-](C#N)C(=O)OCC)cc21.[Na+] (stereo unspecified)
[out] 1.20

[in] Kindly indicate its recorded log10 of MIC. Item: CCOC(=O)C(C#N)c1c(F)cc2c(=O)c(C(=O)O)cn(CC)c2c1F (stereo unspecified)
[out] 0.60

[in] Consider the molecule `CCOC(=O)c1cn(Cc2ccc([N+](=O)[O-])cc2)c2cc(F)c(F)cc2c1=O` . State its measured log10 of MIC.
[out] 2.41

[in] For the molecule `CCOC(=O)c1cn(CC2CCCCC2)c2cc(F)c(F)cc2c1=O` , give its reported log10 of MIC.
[out] 0.90

[in] // Input: CCOC(=O)c1cn(Cc2ccc([N+](=O)[O-])cc2)c2cc(C(C#N)C(=O)OCC)c(F)cc2c1=O.[Na+] (stereo unspecified) . Output its log10 of MIC only.
[out] 2.11

[in] Read the entry `CCOC(=O)c1cn(Cc2cnc(Cl)s2)c2cc(F)c(F)cc2c1=O` and write its reported log10 of MIC.
[out] 1.81

====

System: Klebsiella pneumoniae
Test: Antibacterial activity against Klebsiella pneumonia assessed growth inhibition by micro broth dilution method
Format: functional
measured.property: MIC (µg/mL)
Give the quantity in µg/mL, number only.

[in] Output measured MIC for this item: CCOC(=O)c1cn(C2CC2)c2cc(C(C#N)C(=O)OCC)c(F)cc2c1=O (stereo not drawn)
[out] 8

[in] Item `CCCCCCCCCCCCn1cc(C(=O)OCC)c(=O)c2cc(F)c(F)cc21` : provide MIC
[out] 16

[in] Note MIC for the compound shown: CCOC(=O)c1cn(Cc2cccc(Cl)c2)c2cc([C-](C#N)C(=O)OCC)c(F)cc2c1=O.[Na+] (stereo not drawn)
[out] 4

[in] Assign MIC to the following record: CCOC(=O)c1cn(Cc2ccc(F)cc2F)c2cc([C-](C#N)C(=O)OCC)c(F)cc2c1=O.[Na+] (stereo not drawn)
[out] 4

[in] Provide only the value of recorded MIC for `CCCCCn1cc(C(=O)OCC)c(=O)c2cc(F)c(F)cc21`
[out] 64

[in] Return MIC (reported value) for this compound: CCOC(=O)c1cn(CC)c2cc(C(C#N)C(=O)OCC)c(F)cc2c1=O (stereo not drawn)
[out] 8

[in] Identify the reported MIC for the following entry. CCOC(=O)c1cn(CC=C(C)C)c2cc([C-](C#N)C(=O)OCC)c(F)cc2c1=O.[Na+] (stereo not drawn)
[out] 8

[in] Provide MIC value for the following compound: CCOC(=O)c1cn(CC(N)=O)c2cc([C-](C#N)C(=O)OCC)c(F)cc2c1=O.[Na+] (stereo not drawn)
[out] 256

[in] Supply measured MIC of CCOC(=O)C(C#N)c1cc2c(cc1F)c(=O)c(C(=O)O)cn2CC=C(C)C (stereo not drawn) in your reply.
[out] 0.25

[in] Let me know recorded MIC for `CCOC(=O)c1cn(Cc2ccc(C)cc2)c2cc(F)c(F)cc2c1=O` , thanks.
[out] 128

[in] Tell me measured MIC for `CCOC(=O)c1cn(Cc2ccc(Cl)cc2)c2cc(F)c(F)cc2c1=O` please.
[out] 32

[in] Determine its reported MIC: `C=CCn1cc(C(=O)OCC)c(=O)c2cc(F)c(F)cc21`
[out] 32

[in] Specify measured MIC for CCOC(=O)c1cn(CC)c2cc([C-](C#N)C(=O)OCC)c(F)cc2c1=O.[Na+] (stereo not drawn) .
[out] 32

[in] Answer with reported MIC of CCCCCn1cc(C(=O)OCC)c(=O)c2cc(F)c([C-](C#N)C(=O)OCC)cc21.[Na+] (stereo not drawn)
[out] 4

[in] Answer with the recorded MIC for the compound listed here: CCOC(=O)C(C#N)c1c(F)cc2c(=O)c(C(=O)O)cn3c2c1OC[C@@H]3C (stereo partly drawn)
[out] 8

[in] For CCOC(=O)c1cn(CC(=O)N2CCCCC2)c2cc([C-](C#N)C(=O)OCC)c(F)cc2c1=O.[Na+] (stereo not drawn) , write its MIC.
[out] 256

[in] # return recorded MIC for entry CCOC(=O)C(C#N)c1cc2c(cc1F)c(=O)c(C(=O)O)cn2CC (stereo not drawn)
[out] 1

[in] Entry CCOC(=O)c1cn(CC)c2c(F)c([C-](C#N)C(=O)OCC)c(F)cc2c1=O.[Na+] (stereo not drawn) needs its MIC filled in; supply it.
[out] 16

The measured values listed here are drawn from ChEMBL document CHEMBL5528028.
